tested_on: human orexin 1 receptor (Homo sapiens (Human), UniProt O43613)
Sequence (O43613 whole entry): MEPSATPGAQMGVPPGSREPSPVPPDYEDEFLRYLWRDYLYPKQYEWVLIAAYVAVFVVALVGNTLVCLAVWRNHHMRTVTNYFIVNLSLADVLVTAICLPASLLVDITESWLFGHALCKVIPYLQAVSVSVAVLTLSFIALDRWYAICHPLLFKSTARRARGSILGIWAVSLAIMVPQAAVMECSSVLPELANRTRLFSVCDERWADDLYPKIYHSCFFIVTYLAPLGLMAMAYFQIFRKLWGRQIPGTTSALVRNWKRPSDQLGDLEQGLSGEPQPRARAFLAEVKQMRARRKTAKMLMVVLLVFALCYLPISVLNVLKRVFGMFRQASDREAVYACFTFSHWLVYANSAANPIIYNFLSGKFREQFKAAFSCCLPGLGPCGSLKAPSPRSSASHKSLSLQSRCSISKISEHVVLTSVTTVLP
assay_remarks: Human orexin 1 receptor radioligand binding (competitive, [3H]-SB674042, CHO cell preparations)
experimental_parameters: read-out: hOX1 Ki (nm)
measure_name: pKi
Give bare numbers, as −log10 of the molar value.

O=C(c1c(F)cccc1-n1nccn1)N1[C@@H]2CC[C@H]1[C@H](Nc1cnc(C(F)(F)F)cn1)C2 [Example 258] ... 7.32
O=C(c1cc(F)ccc1-c1ncccn1)N1[C@@H]2CC[C@H]1[C@H](Nc1cnc(C(F)(F)F)cn1)C2 [Example 243] ... 7.35
Cc1cccc(C(=O)N2[C@@H]3CC[C@H]2[C@H](Nc2cnc(C(F)(F)F)cn2)C3)c1-c1cccnn1 [Example 263] ... 7.39

Hi there! I need pKi for each item below, if you can.
1. Cc1cccc(C(=O)N2[C@@H]3CC[C@H]2[C@H](Nc2ncc(C(F)(F)F)cn2)C3)c1I [Example 276]
2. O=C(c1cccc(F)c1-c1ncco1)N1[C@@H]2CC[C@H]1[C@H](Nc1ncc(C(F)(F)F)cn1)C2 [Example 284]
3. O=C(c1ccc(F)cc1-c1ncccn1)N1[C@@H]2CC[C@H]1[C@H](Nc1ccc(C(F)(F)F)cn1)C2 [Example 280]

Result string:
[7.01, 7.57, 7.43]

###

tested_on: human orexin 2 receptor (Homo sapiens (Human), UniProt O43614)
Sequence (O43614 whole entry): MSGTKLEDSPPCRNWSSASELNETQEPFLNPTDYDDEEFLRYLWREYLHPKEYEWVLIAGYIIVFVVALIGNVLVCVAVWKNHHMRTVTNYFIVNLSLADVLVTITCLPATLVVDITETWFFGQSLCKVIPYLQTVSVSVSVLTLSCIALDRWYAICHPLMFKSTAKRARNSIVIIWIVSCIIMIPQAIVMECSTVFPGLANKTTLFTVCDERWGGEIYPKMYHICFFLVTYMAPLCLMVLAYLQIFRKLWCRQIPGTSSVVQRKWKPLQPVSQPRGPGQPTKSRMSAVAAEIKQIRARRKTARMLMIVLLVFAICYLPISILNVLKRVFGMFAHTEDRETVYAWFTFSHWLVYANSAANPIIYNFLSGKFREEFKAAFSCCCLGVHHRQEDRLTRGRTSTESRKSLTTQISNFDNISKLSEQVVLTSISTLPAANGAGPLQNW
assay_remarks: Human orexin 2 receptor radioligand binding (competitive, [3H]-EMPA, HEK293 cell preparations)
experimental_parameters: hOX2 Ki (nm)
Assignment: determine reported Ki for the given molecules.
Answers are plain numbers, in nM.

Answered examples (3):
Cc1ccc(-c2ncccn2)c(C(=O)N2C3CCC2C(Nc2ccc(C(F)(F)F)cn2)C3)n1 (racemic) ... 325
O=C(c1cccc(F)c1-n1nccn1)N1C2CCC1C(COc1nccc(C(F)(F)F)n1)C2 (racemic) ... 690
Cc1ccc(-n2nccn2)c(C(=O)N2C3CCC2C(Nc2cnc4ccccc4n2)C3)n1 (racemic) [Example 205] ... 168

Query string: Quick one: Ki for Cc1cc(C)nc(OCC2CC3CCC2N3C(=O)c2cccc(F)c2-n2nccn2)n1 (racemic) ?
Result string: 300

###

tested_on: rat orexin 1 receptor (Rattus norvegicus, UniProt P56718)
assay_remarks: Rat orexin 1 receptor radioligand binding (competitive, [3H]-SB674042, HEK293 cell preparations)
experimental_parameters: rOX1 Ki (nm)
measure_name: pKi
One number for each entry, as −log10 of the molar value.

Cc1ccc(-n2cccn2)c(C(=O)N2C3CCC2C(COc2ncc(F)cn2)C3)n1 (racemic) [Example 104] ... 5.96
O=C(c1cccc(F)c1-c1ncccn1)N1C2CCC1C(COc1ccc(F)cn1)C2 (racemic) [Example 124] ... 7.08

Hi there! I need pKi for each item below, if you can.
1. Cc1ccc(-c2ncccc2C)c(C(=O)N2C3CCC2C(COc2ccc(F)cn2)C3)n1 (racemic) [Example 65]
2. O=C(c1cccc(F)c1-n1nccn1)N1C2CCC1C(COc1ccc(F)cn1)C2 (racemic) [Example 117]
3. Cc1ccc(-c2ncccn2)c(C(=O)N2[C@@H]3CC[C@H]2[C@H](COc2ccccn2)C3)n1 (single isomer, unassigned) [Example 3A]

Result string:
1: 5.84; 2: 7.21; 3: 7.62

###

Assignment: determine reported pKi for the given compounds.
tested_on: rat orexin 1 receptor (Rattus norvegicus)
assay_remarks: Rat orexin 1 receptor radioligand binding (competitive, [3H]-SB674042, HEK293 cell preparations)
experimental_parameters: read-out: rOX1 Ki (nm)
Answers are plain numbers, as −log10 of the molar value.

Answered examples (5):
Cc1cccc(C(=O)N2[C@@H]3CC[C@H]2[C@H](Nc2cnc(C(F)(F)F)cn2)C3)c1-n1nccn1 [Example 245] ... 8.00
Cc1nc(C(=O)N2[C@@H]3CC[C@H]2[C@H](Nc2cnc(C(F)(F)F)cn2)C3)c(-c2ccc(F)cc2)s1 [Example 244] ... 7.13
Cc1cnc(N[C@@H]2C[C@H]3CC[C@@H]2N3C(=O)c2cccc(F)c2-c2ncccn2)cn1 [Example 278] ... 7.06
O=C(c1cc(F)ccc1-c1ncccn1)N1[C@@H]2CC[C@H]1[C@H](Nc1cnc(C(F)(F)F)cn1)C2 [Example 243] ... 7.47
O=C(c1c(F)cccc1-n1nccn1)N1[C@@H]2CC[C@H]1[C@H](Nc1cnc(C(F)(F)F)cn1)C2 [Example 258] ... 7.38

Query string: Fill in the recorded pKi for this compound, with rat orexin 1 receptor (Rattus norvegicus) as test system: Cc1cccc(C(=O)N2[C@@H]3CC[C@H]2[C@H](Nc2cnc(C(F)(F)F)cn2)C3)c1-c1cccnn1 [Example 263]
Result string: 7.36

Reference for the values: patent US9062078B2
